Target: chimeric REV1 CTD protein (Mus musculus)
Construct: the mouse REV1 CTD (F1150-T1249); His10-GB1 (TEV site) (N, cleaved yes)
Sequence (Q920Q2 1150-1249): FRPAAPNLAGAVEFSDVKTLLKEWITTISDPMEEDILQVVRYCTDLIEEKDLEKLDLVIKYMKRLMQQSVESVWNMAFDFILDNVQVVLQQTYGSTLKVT
Assay: Isothermal titration calorimetry
Details: 25° C.; read-out: dissociation constant (Kd)
Method: Isothermal titration calorimetry measurements were carried out using a MicroCal VP-ITC instrument at 25° C., with the chimeric REV1 CTD protein (300 μM) in the syringe and compound (15 μM) in the cell. Compounds were initially dissolved in 50% MPD. Protein and compound samples were diluted in a buffer containing 50 mM HEPES pH 7.5, 50 mM KCl, 2 mM TCEP, 2% DMSO and 0.1% MPD. Microcal Origin 7 software was used to analyze the data.
pKd: −log10 of the molar value.
parameterMeasured: pKd

CC(C)CC(=O)c1c(Nc2ccc(Cl)cc2Cl)[nH]c2c(Cl)ccc([N+](=O)[O-])c2c1=O ... 6.38

* * *

Target: REV1 CTD-REV7/3 interaction (Mus musculus)
Construct: fused on or other part: FLAG tag at the N-terminus (after the TEV site; His10-GB1 solubility tag cleaved off); di-glycine linker between mouse POL kappa RIR K564-N577 and the REV1 CTD; Q9QUG2 (DNA polymerase kappa)
Experiment: AlphaScreen assay, inhibition of the REV1 CTD-REV7/3 interaction
Details: fitting of the inhibition curve, inhibitor 0-25 μM, n=3
pIC50: −log10 of the molar value.
parameterMeasured: pIC50

CC(C)CC(=O)c1c(Nc2ccc(Cl)cc2Cl)[nH]c2c(Cl)ccc([N+](=O)[O-])c2c1=O ... 6.11
